Just for reference, patent US20120219562A1 is where these values come from.

# System Under Test: T1, human interleukin 12 (human, UniProt P29459 23-219; P29460 23-328)
# T1 construct: heterodimer of p35 and p40 linked by a disulfide bridge; also called hIL-12; IL-12
# T1 sequence (looked up) 1: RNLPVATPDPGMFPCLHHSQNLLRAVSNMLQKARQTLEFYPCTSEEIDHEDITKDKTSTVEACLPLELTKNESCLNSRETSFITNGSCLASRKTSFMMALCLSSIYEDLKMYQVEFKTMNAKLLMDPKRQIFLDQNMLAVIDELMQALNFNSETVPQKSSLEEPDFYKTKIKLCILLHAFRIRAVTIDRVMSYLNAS
# T1 sequence (looked up) 2: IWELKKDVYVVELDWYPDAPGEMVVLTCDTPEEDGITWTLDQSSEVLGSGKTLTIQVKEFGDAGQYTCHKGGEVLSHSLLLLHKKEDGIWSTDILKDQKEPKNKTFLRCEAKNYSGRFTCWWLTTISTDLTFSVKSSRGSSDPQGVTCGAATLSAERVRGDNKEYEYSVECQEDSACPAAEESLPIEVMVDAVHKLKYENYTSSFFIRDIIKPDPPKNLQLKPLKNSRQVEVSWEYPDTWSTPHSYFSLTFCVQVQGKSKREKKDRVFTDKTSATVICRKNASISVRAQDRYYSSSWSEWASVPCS
# Experiment Description: SPR (BIAcore)
Reported Metric: koff (s⁻¹)
Express your answer in s⁻¹, writing the number without its unit.

Specify koff for M2 F1 (antibody, V domains shown) VH: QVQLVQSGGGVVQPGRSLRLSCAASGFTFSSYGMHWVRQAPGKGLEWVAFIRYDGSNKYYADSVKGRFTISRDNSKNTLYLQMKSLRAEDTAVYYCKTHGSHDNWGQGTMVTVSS VL: SYVLTQPPSVSGTPGQRVTISCSGGRSNIGSNTVKWYQQLPGTAPKLLIYGNDQRPSGVPDRFSGSKSGTSASLAITGVQAEDEADYYCQSYDSDVTGSRVFGTGTKVTVLG and stop.
0.0616

Specify koff for 136-21 (antibody, V domains shown) VH: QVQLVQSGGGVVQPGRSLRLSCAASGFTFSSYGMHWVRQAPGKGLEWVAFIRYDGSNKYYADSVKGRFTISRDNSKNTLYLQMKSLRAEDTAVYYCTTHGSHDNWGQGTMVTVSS VL: SYVLTQPPSVSGTPGQRVTISCSGGRSNIGSNTVKWYQQLPGTAPKLLIYGNDQRPSGVPDRFSGSKSGTSASLAITGVQAEDEADYYCQSYDNGFTGSRVFGTGTKVTVL and stop.
0.00042

Specify koff for M2 B6 (antibody, V domains shown) VH: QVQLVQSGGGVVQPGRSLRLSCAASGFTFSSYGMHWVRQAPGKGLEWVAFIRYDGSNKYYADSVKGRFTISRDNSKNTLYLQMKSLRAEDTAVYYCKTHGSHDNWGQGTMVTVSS VL: SYVLTQPPSVSGTPGQRVTISCSGGRSNIGSNTVKWYQQLPGTAPKLLIYGNDQRPSGVPDRFSGSKSGTSASLAITGVQAEDEADYYCQSYDRGLTASRVFGTGTKVTVL and stop.
0.0281

Specify koff for M2 B3 (antibody, V domains shown) VH: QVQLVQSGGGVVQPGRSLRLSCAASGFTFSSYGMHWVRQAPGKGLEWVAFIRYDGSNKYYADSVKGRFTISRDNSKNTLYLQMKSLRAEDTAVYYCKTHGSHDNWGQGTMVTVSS VL: SYVLTQPPSVSGTPGQRVTISCSGGRSNIGSNTVKWYQQLPGTAPKLLIYGNDQRPSGVPDRFSGSKSGTSASLAITGVQAEDEADYYCQSYDIGMTGSRVFGTGTKVTVLG and stop.
0.046

Specify koff for 73-B6 (antibody, V domains shown) VH: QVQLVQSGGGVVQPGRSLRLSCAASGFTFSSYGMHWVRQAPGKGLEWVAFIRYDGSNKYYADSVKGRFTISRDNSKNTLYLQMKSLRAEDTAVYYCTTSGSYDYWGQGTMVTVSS VL: SYVLTQPPSVSGTPGQRVTISCSGGRSNIGSNTVKWYQQLPGTAPKLLIYGNDQRPSGVPDRFSGSKSGTSASLAITGVQAEDEADYYCHSYDNRFTGSRVFGTGTKVTVLG and stop.
0.00251

Specify koff for 43-E9 (antibody, V domains shown) VH: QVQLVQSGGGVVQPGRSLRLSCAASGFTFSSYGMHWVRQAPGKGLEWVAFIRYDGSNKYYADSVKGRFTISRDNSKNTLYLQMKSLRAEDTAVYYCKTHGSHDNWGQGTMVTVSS VL: SYVLTQPPSVSGTPGQRVTISCSGGRSNIGSNTVKWYQQLPGTAPKLLIYGNDQRPSGVPDRFSGSKSGTSASLAITGVQAEDEADYYCQSYDRGTIPSIEFGTGTKVTVLG and stop.
0.0008

Specify koff for 73-E6 (antibody, V domains shown) VH: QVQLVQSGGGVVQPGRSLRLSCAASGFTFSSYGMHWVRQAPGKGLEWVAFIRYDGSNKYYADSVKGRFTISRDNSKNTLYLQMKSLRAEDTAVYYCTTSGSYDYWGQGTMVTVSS VL: SYVLTQPPSVSGTPGQRVTISCSGGRSNIGSNTVKWYQQLPGTAPKLLIYGNDQRPSGVPDRFSGSKSGTSASLAITGVQAEDEADYYCHSYESGFTGSRVFGTGTKVTVLG and stop.
0.00417

Specify koff for 73-F3 (antibody, V domains shown) VH: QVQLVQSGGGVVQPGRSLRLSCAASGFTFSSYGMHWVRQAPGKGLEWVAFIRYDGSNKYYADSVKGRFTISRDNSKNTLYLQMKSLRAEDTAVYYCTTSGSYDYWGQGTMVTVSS VL: SYVLTQPPSVSGTPGQRVTISCSGGRSNIGSNTVKWYQQLPGTAPKLLIYGNDQRPSGVPDRFSGSKSGTSASLAITGVQAEDEADYYCQSYDAPWSGSRVFGTGTKVTVLG and stop.
0.00708

Specify koff for M2 D5 (antibody, V domains shown) VH: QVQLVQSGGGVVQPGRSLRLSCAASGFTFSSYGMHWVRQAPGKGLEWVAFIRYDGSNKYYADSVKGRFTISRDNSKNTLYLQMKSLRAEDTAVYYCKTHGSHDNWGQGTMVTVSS VL: SYVLTQPPSVSGTPGQRVTISCSGGRSNIGSNTVKWYQQLPGTAPKLLIYGNDQRPSGVPDRFSGSKSGTSASLAITGVQAEDEADYYCQSYDSSSTGSRVFGTGTKVTVLG and stop.
0.0518

Specify koff for 136-10 (antibody, V domains shown) VH: QVQLVQSGGGVVQPGRSLRLSCAASGFTFSSYGMHWVRQAPGKGLEWVAFIRYDGSNKYYADSVKGRFTISRDNSKNTLYLQMKSLRAEDTAVYYCTTHGSHDDWGQGTMVTVSS VL: SYVLTQPPSVSGTPGQRVTISCSGGRSNIGSNTVKWYQQLPGTAPKLLIYGNDQRPSGVPDRFSGSKSGTSASLAITGVQAEDEADYYCQSYDRGFTGSRVFGTGTKVTVL and stop.
0.0014
